target: T1, human CD47ECD-linker peptide-7his (human, UniProt Q08722 19-139); assay: ELISA, hCD47-his coated at 1 µg/ml, cell culture supernatant
T1 construct: also called hCD47-his; human CD47-his
T1 sequence (Q08722 other isoform, or with tags, fused parts or gaps limits assumed): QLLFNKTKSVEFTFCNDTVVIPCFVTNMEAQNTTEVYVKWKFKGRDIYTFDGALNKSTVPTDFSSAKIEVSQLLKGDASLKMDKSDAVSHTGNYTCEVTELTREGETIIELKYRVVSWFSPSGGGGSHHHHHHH
// reported OD450 for each item listed

{"columns": ["Binder", "OD450 (OD450)"],
 "data": [
  ["059-1.51.2 (antibody, mouse IgM, V domains shown, Mouse hybridoma antibody; light chain type kappa) VH: EVQLQQSGPELVKPGASVKMSCKASGYTFTNYVMHWMKQKPGQGLEWIGYINPYNDDTKYNEKFKDRATLTSDKSSSTAYMELSSLTSEDSAVYYCAKGGYYSMDYWGQGTSVTVSS VL: DVVMTQTPLSLPVSLGDQASISCRSSQSLVHSKGNTYLHWYLQKPGQSPKLLIYKVSNRFSGVPDRFSGSGSGTDFTLKISRVEAEDLGVYFCSQSTHVPFTFGSGTKLEIK", 0.771],
  ["059-1.11.1 (antibody, mouse IgM, V domains shown, Mouse hybridoma antibody; the subclass paragraph gives the light chain type as kappa; also called 059-1.11.1 purified antibody) VH: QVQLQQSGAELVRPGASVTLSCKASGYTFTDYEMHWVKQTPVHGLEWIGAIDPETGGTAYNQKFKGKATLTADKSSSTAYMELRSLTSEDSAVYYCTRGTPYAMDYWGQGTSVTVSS VL: DVVMTQTPLSLPVSLGDQASISCRSSQSLVHSNGNTYLHWYLQKPGQSPKLLIYKVSNRFSGVPERFSGSGSGTDFTLKISRVEAEDLGVYFCSQSTHVPWTFGGGTKLEIK", 3.67]
]}
